Parameter: activity, negative = cell killing. Scope: all listed entries.
test.details: Drug repurposing screens with cells derived from glioblastoma tumor samples (AID 1345199); further: on the % scale 0 is the no-effect control and ±100 the full control effect
experimental.conditions: GBM patient neurospheres viability, ATP luminescence, 48 h; at 45.9 µM (top of the series); tumour line B
Results filed as inconclusive are left out. Where a SMILES comes first, the peptide text is derived from it. Bridges are numbered along the chain shown (N, C = ends). [ ]: non-standard residue; d: D form. The star is where a group is joined. X2 = CC[C@H](C)CCCCC(=O)*; Dab = NCC[C@H](N)C(=O)O
property.label: activity, negative = cell killing (%)

[[record]]
compound = "COc1ccc(CNCC(O)COc2ccc3[nH]c(=O)ccc3c2)cc1OC (centres undefined)"
measurement_units = "%"
reading = -3.95

[[record]]
compound = "C[C@H]1C[C@H]2[C@@H]3CCC4=CC(=O)C=C[C@]4(C)[C@@]3(F)[C@@H](O)C[C@]2(C)[C@@]1(O)C(=O)CCl"
measurement_units = "%"
reading = 1.74

[[record]]
compound = "COc1ccnc(CS(=O)c2nc3cc(OC(F)F)ccc3[nH]2)c1OC (centres undefined)"
measurement_units = "%"
reading = -14.8

[[record]]
compound = "CC[C@H](C)CCCCC(=O)N[C@@H](CCN)C(=O)N[C@H](C(=O)N[C@@H](CCN)C(=O)N[C@H]1CCNC(=O)[C@H]([C@@H](C)O)NC(=O)[C@H](CCN)NC(=O)[C@H](CCN)NC(=O)[C@H](CC(C)C)NC(=O)[C@@H](CC(C)C)NC(=O)[C@H](CCN)NC1=O)[C@@H](C)O (X2-[Dab]T[Dab][Dab][Dab][dL]L[Dab][Dab]T; lactam 4-C)"
measurement_units = "%"
reading = 6.46

[[record]]
compound = "C/C=C(/CC[C@@H](C)[C@H]1CC[C@H]2C3=CC[C@H]4[C@H](C)[C@@H](O)CC[C@]4(C)[C@H]3CC[C@]12C)C(C)C"
measurement_units = "%"
reading = -6.71

[[record]]
compound = "CS(=O)(=O)Nc1cc2occ(NC=O)c(=O)c2cc1Oc1ccccc1"
measurement_units = "%"
reading = -8.06

[[record]]
compound = "CC(=O)[C@@]1(O)CC[C@H]2[C@@H]3C=C(Cl)C4=CC(=O)CC[C@]4(C)[C@H]3CC[C@@]21C"
measurement_units = "%"
reading = -7.69

[[record]]
compound = "CCOc1ccc(N=C(C)Nc2ccc(OCC)cc2)cc1"
measurement_units = "%"
reading = -12.2

[[record]]
compound = "c1cnc2cc3c(cc2n1)[C@@H]1CNC[C@H]3C1"
measurement_units = "%"
reading = 5.48

[[record]]
compound = "CCC(=O)OCC(=O)[C@@]1(OC(=O)CC)[C@H](C)C[C@H]2[C@@H]3CCC4=CC(=O)C=C[C@]4(C)[C@@]3(F)[C@@H](O)C[C@@]21C"
measurement_units = "%"
reading = -7.21

[[record]]
compound = "CC[C@H]1OC(=O)[C@H](C)[C@@H](O[C@H]2C[C@@](C)(OC)[C@@H](O)[C@H](C)O2)[C@H](C)[C@@H](O[C@@H]2O[C@H](C)C[C@H](N(C)C)[C@H]2O)[C@](C)(O)C[C@@H](C)[C@@H]2N[C@@H](COCCOC)O[C@@H]([C@H]2C)[C@]1(C)O"
measurement_units = "%"
reading = -7.98

[[record]]
compound = "CC(=O)O[C@H]1C[C@@H]2CC[C@@H]3[C@H](CC[C@@]4(C)[C@H]3C[C@H](N3CC[N+](C)(C)CC3)[C@@H]4OC(C)=O)[C@@]2(C)C[C@@H]1N1CC[N+](C)(C)CC1"
measurement_units = "%"
reading = -3.42

[[record]]
compound = "O=S(=O)(O)Oc1ccc(C(c2ccc(OS(=O)(=O)O)cc2)c2ccccn2)cc1"
measurement_units = "%"
reading = 0.447

[[record]]
compound = "CCCN(CC)C(CC)C(=O)Nc1c(C)cccc1C (centres undefined)"
measurement_units = "%"
reading = -5.49

